pIC50: −log10 of the molar value.
MERTK (Homo sapiens, UniProt Q12866) pIC50, compiled from various sources.

Sample answers from the record:
{"columns": ["MOLECULE", "pIC50"],
 "data": [
  ["COCC(C)Nc1ncc2c(C3CCN(c4ccnc(C)n4)C3)cc(C3CCC(O)CC3)n2n1 (stereo not shown)", "≥ 7.00"],
  ["Cn1cc(-c2cnc(N)c(C(=O)N[C@@H]3CCN(C(=O)c4cccc(-c5cnn(C6CCNCC6)c5)c4)C3)c2)cn1", "< 6.00"],
  ["CN1CCN(c2ccc(Nc3ncc4c(n3)n3c(cc5ccccc53)c(=O)n4C)cc2)CC1", "6.00 to 6.60"]
]}

Batch request: pIC50 per item, same order as input.
1. COC[C@H](C)Nc1ncc2c(-c3cncc(CN4CCOCC4)c3)cc([C@H]3CC[C@H](O)CC3)n2n1
2. COC[C@H](C)Nc1ncc2c(-c3cnn(CCS(C)(=O)=O)c3)cc([C@H]3CC[C@H](O)CC3)n2n1
3. COC[C@H](C)Nc1ncc2c(OC3CCOCC3)ncc(-c3ccc(O)cc3)c2n1

*A*
1. ≥ 7.00
2. ≥ 7.00
3. ≥ 7.00

*Q* Give the measured pIC50 of CC(=O)Nc1cc(Oc2ccc(NC(=O)c3c4n(n(-c5ccccc5)c3=O)CCCC4)nc2)ccn1 .
*A* 7.92

====

MERTK (Homo sapiens, UniProt Q12866) IC50, compiled from various sources.

{"columns": ["COMPOUND", "IC50"],
 "data": [
  ["COC[C@H](C)Nc1ncc2c(-c3ccnc(O[C@H]4CCNC4)c3)cc([C@H]3CC[C@H](O)CC3)n2n1", "≤ 100 nM"],
  ["C[C@@H](COC(F)F)Nc1ncc2c(-c3ccnc(N4CCOC(C(C)(C)O)C4)c3)cc([C@H]3CC[C@H](O)CC3)n2n1 (some centres unmarked)", "≤ 100 nM"],
  ["O[C@H]1CC[C@H](c2cnc(OC3CCOCC3)c3cnc(Nc4ccc(Cl)cc4)nc32)CC1", "≤ 100 nM"],
  ["COC[C@H](C)Nc1ncc2c(CC#N)cc([C@H]3CC[C@H](O)CC3)n2n1", "≤ 100 nM"],
  ["Nc1ncc(-c2cnn(C3CCNCC3)c2)cc1-c1nnc(-c2ccccn2)o1", "< 500 nM"]
]}

Batch request: IC50 per item, same order as input.
1. Nc1ncc(-c2cnn(C3CCNCC3)c2)cc1C(=O)N[C@@H]1CCN(CC2CC=CCC2)C1 (some centres unmarked)
2. C[C@@H](CC(F)(F)F)Nc1ncc2c(O[C@H]3C[C@@H](O)C3)ncc([C@H]3CC[C@](C)(O)CC3)c2n1

*A*
> 1000 nM
≤ 100 nM

*Q* Give the measured IC50 of COc1cc2nccc(Oc3ncc(NC(=O)c4cn(C(C)C)nc(-c5ccc(F)cc5)c4=O)cn3)c2cc1OC .
*A* 12 nM

====

pIC50: −log10 of the molar value.
MERTK (Homo sapiens, UniProt Q12866) pIC50, compiled from various sources.

Batch request: pIC50 per item, same order as input.
1. O=C(c1ccc(-c2n[nH]c3ncc(-c4ccc5c(c4)CC[C@@H](N4CCCC4)CC5)cc23)cc1Cl)N1CCNCC1
2. Cc1[nH]c2cc(C(=O)N3CC[C@@H](NC(=O)c4cc(-c5cnn(C)c5)cnc4N)C3)ccc2c1C
3. Cn1cc(-c2cnc(N)c(C(=O)N[C@@H]3CCN(C(=O)c4cccc(-c5ccccc5Cl)c4)C3)c2)cn1
4. C[C@@H]1CCCN1C1CCc2ccc(-c3cnc4[nH]nc(-c5ccc(C(C)(C)O)c(Cl)c5)c4c3)cc2CC1 (stereo partly drawn)
5. COC[C@H](C)Nc1ncc2c(Nc3cccnc3)ncc([C@H]3CC[C@H](O)CC3)c2n1
6. COC[C@@H](C)Nc1ncc2c(OC3CC(O)C3)ncc([C@H]3CC[C@H](O)CC3)c2n1 (stereo partly drawn)

*A*
["> 7.00", "6.00 to 7.00", "< 6.00", "6.00 to 7.00", "≥ 7.00", "≥ 7.00"]

Batch request: pIC50 per item, same order as input.
1. Nc1ncc(-c2cnn(C3CCCCC3)c2)cc1-c1ccc(-c2ccccc2)o1
2. COc1cc2nccc(Oc3cnc(NC(=O)c4cn(CC5CCSCC5)cc(-c5ccc(C)cc5)c4=O)nc3)c2cc1OC
3. COC[C@H](C)Nc1ncc2c(OC3CCOCC3)ncc([C@H]3CCCN(C)C3)c2n1

*A*
1. 5.00 to 6.00
2. 8.30
3. 6.00 to 7.00

Batch request: pIC50 per item, same order as input.
1. Cn1cc(-c2cnc(N)c(C(=O)N[C@@H]3CCN(C(=O)c4ccc(-c5cccc(Cl)c5)cc4)C3)c2)cn1
2. CC(C)n1cc(C(=O)Nc2ccc(Oc3ccnc4cc(OCCCN5CCCC5)c5c(c34)OCCO5)c(F)c2)c(=O)n(-c2ccc(F)cc2)c1=O
3. O[C@H]1CC[C@H](c2cnc(OC3CCOCC3)c3cnc(NCCC(F)(F)F)nc32)CC1
4. Cn1cc(-c2cnc(N)c(C(=O)N[C@@H]3CCN(C(=O)c4ccc(-c5ccc(Oc6ccc(N)nc6)cc5)cc4)C3)c2)cn1
5. Cc1nc2ccc(-c3c[nH]c4nc(Nc5ccc(CN6CCN(C)CC6)cc5)nc(OCC5CCCO5)c34)cc2o1 (stereo not drawn)
6. CC(C)(C)OC(=O)N1CCC(n2cc(-c3cnc(N)c(-c4nnc(-c5nccs5)o4)c3)cn2)CC1

*A*
7.00 to 8.00
≥ 7.30
≥ 7.00
6.00 to 7.00
< 6.00
5.00 to 6.00
